The values you see were collected from patent US20040147432A1.

Reported Activation % at 10 µM (aequorin functional assay) values follow for various binders
# target-under-test: human melanin concentrating hormone type 2 receptor (MCH-2R) (human, UniProt Q969V1 1-340)
# Sequence (Q969V1 whole entry, form in doubt): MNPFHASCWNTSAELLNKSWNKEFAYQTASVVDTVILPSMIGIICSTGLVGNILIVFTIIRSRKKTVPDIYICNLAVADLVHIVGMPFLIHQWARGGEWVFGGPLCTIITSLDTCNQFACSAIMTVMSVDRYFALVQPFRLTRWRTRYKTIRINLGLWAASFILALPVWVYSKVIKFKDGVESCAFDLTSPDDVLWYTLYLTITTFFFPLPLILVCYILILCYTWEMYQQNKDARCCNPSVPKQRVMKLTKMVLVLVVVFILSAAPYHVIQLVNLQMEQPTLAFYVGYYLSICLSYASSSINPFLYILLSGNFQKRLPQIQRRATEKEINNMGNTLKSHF
# test-description: cell-based or functional assay
Bridges are numbered along the chain shown (N, C = ends). Where no end group is shown, it is not given here.
Quick reminder: number only, in %, skip the unit.

Ask: Provide only the value of recorded Activation % at 10 µM (aequorin functional assay) for DADMLRCMLGRVYRPCWQV (disulfide 7-16, also called Ala^2) [SEQ. ID. NO. 42]
Result: 102

Ask: Provide only the value of recorded Activation % at 10 µM (aequorin functional assay) for DFDMLRCALGRVYRPCWQV (disulfide 7-16) [SEQ. ID. NO. 47]
Result: 94
